Values were extracted from ChEMBL document CHEMBL1127026.

tested on: 5-HT3 receptor (Cavia porcellus); test: Tested for the antagonistic activity against 5-hydroxytryptamine 3 receptor from guinea pig ileum; parameters: concentration or dose not given beside the values; details: concentration not given here
MEASURED_PROPERTY: inhibition (%)
// units = %; emit number, no label

Some compounds with recorded inhibition:
SMILES_STRING	REPORTED_RESULT
N#Cc1nc2ccccc2nc1N1CCNCC1	63.7
CCN1CCN(c2nc3ccccc3nc2C#N)CC1	80.5
Cc1ccc(N2CCN(c3nc4ccccc4nc3C#N)CC2)cc1	15.8

# returns recorded inhibition (system: 5-HT3 receptor (Cavia porcellus)) for `N#Cc1nc2ccccc2nc1N1CCN(Cc2ccc3c(c2)OCO3)CC1`
28.4

====

biological target: Serotonin 2 (5-HT2) receptor (Rattus norvegicus) (UniProt P30994+P08909+P14842); assay: Tested for antagonistic activity against 5-hydroxytryptamine 2 receptor from rat thoracic aorta; format: functional, tissue-based; design: concentration or dose not given beside the values; conditions: concentration not given here
Sequence (P08909 whole entry, looked up): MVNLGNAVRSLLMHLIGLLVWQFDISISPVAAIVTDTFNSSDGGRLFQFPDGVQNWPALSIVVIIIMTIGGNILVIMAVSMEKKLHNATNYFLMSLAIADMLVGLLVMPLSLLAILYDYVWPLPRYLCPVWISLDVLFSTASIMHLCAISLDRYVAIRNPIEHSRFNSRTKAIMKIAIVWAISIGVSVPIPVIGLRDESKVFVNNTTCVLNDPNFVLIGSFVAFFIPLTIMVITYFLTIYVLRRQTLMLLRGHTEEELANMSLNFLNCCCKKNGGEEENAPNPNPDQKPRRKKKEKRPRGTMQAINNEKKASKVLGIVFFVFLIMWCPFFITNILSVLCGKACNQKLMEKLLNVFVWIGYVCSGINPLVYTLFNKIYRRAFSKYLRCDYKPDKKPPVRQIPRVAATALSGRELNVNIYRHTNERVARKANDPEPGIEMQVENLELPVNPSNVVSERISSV
Sequence (P14842 whole entry, looked up): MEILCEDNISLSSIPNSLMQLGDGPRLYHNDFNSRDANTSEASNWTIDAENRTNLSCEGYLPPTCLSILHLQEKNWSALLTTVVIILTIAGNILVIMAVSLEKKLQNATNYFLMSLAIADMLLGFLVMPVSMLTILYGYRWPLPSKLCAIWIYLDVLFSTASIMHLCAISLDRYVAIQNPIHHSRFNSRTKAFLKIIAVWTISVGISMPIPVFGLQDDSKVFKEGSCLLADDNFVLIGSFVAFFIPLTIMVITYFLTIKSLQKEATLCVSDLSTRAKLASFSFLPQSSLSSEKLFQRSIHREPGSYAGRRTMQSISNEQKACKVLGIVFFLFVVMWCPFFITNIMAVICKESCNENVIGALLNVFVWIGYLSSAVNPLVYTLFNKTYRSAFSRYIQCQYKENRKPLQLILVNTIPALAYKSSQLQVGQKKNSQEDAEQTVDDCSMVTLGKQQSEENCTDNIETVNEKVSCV
Sequence (P30994 whole entry, looked up): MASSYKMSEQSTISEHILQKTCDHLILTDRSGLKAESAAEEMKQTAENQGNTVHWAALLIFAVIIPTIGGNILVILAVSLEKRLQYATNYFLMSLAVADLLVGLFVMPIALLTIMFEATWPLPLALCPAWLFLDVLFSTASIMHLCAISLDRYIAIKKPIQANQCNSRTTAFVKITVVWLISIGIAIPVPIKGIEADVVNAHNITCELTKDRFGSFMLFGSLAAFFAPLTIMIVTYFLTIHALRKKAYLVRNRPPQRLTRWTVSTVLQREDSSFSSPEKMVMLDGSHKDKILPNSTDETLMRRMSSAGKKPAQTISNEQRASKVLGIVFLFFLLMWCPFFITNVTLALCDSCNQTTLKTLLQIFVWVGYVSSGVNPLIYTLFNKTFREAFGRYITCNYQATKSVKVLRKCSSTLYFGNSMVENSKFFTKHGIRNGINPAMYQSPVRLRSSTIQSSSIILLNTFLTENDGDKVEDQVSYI
MEASURED_PROPERTY: inhibition (%)
Could you give me the number in %? Just the number is fine.

# annotated cases, reported inhibition shown
MOLECULE	REPORTED_RESULT
CCCN1CCN(c2nc3ccccc3nc2C#N)CC1	12.5
CN1[C@@H]2CC[C@H]1C[C@@H](OC(=O)c1c[nH]c3ccccc13)C2.Cl	2.4

I have this molecule here, `Cc1ccc(N2CCN(c3nc4ccccc4nc3C#N)CC2)cc1` , and I need its recorded inhibition.
4.6

Bench note: what inhibition did Cc1nccn1CC1CCc2c(c3ccccc3n2C)C1=O (stereo not given) [ONDANSETRON] show?
0.6

Which inhibition reading was recorded for the molecule `N#Cc1nc2ccccc2nc1N1CCN(c2ccccc2)CC1` ?
8.4

Item `N#Cc1nc2ccccc2nc1N1CCN(CCc2ccccc2)CC1` has what recorded inhibition?
25

What inhibition value was documented for this molecule, `CCCCCN1CCN(c2nc3ccccc3nc2C#N)CC1` ?
3.9

Entry `N#Cc1nc2ccccc2nc1N1CCN(Cc2ccccc2)CC1` has what inhibition?
20.5

Any idea what inhibition was measured for `CCOC(=O)CN1CCN(c2nc3ccccc3nc2C#N)CC1` ?
5.1

Using the record for `N#Cc1nc2ccccc2nc1N1CCNCC1` , report its inhibition.
9.1

// inhibition lookup, key: `N#Cc1nc2ccccc2nc1N1CCN(c2ccc(Cl)cc2)CC1`
7

Which inhibition value is on record for `CCN1CCN(c2nc3ccccc3nc2C#N)CC1` ?
9.1

Param item = `COc1cccc(N2CCN(c3nc4ccccc4nc3C#N)CC2)c1` ; retrieve measured inhibition.
4.6

So what does the record say about inhibition for `N#Cc1nc2ccccc2nc1N1CCN(c2cccc(C(F)(F)F)c2)CC1` ?
18.3

What does the data say about its inhibition? Entry: `C=CCN1CCN(c2nc3ccccc3nc2C#N)CC1`
9.1

====

target: Serotonin 3 (5-HT3) receptor (Rattus norvegicus, UniProt P35563+Q9JJ16); assay: Displacement of binding of [3H]-BRL 43694 to 5-hydroxytryptamine 3 receptor in rat cerebral cortex
Sequence (P35563 whole entry): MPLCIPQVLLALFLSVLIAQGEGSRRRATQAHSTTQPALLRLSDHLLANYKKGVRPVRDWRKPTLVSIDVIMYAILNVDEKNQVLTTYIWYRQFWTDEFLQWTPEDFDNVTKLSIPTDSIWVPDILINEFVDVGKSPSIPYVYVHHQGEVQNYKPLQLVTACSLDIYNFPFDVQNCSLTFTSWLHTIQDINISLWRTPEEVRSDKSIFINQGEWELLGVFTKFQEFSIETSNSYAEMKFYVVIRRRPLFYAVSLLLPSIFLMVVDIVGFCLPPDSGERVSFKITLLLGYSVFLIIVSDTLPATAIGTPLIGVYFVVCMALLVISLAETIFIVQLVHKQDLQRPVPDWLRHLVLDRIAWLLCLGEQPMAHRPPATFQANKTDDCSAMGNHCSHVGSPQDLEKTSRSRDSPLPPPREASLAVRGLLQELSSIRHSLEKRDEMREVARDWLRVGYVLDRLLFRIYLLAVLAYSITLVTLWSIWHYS
Sequence (Q9JJ16 whole entry): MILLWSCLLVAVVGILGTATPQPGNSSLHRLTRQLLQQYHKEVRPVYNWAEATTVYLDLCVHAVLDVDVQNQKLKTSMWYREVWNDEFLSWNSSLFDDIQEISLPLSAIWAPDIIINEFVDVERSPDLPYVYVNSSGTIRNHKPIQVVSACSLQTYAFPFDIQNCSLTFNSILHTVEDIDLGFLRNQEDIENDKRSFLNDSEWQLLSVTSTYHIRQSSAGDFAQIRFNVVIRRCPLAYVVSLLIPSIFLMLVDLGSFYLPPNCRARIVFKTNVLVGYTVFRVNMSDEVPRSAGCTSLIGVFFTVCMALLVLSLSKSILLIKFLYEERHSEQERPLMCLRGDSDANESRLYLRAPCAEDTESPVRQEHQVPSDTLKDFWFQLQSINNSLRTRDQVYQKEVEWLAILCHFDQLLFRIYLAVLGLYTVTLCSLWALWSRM
Items are presented alongside their recorded log10 Ki.
# log10 transformed; quantity=Ki; unit=nM

Please review the following examples before continuing.
SMILES_STRING	REPORTED_RESULT
CN1[C@@H]2CC[C@H]1C[C@@H](OC(=O)c1c[nH]c3ccccc13)C2.Cl	0.58
CCN1CCN(c2nc3ccccc3nc2C#N)CC1	2.00
CCCN1CCN(c2nc3ccccc3nc2C#N)CC1	1.60
C=CCN1CCN(c2nc3ccccc3nc2C#N)CC1	0.90

Switching to the query record.
Fill blank: measured log10 Ki of the compound `N#Cc1nc2ccccc2nc1N1CCNCC1` is ____.
1.95
